Source listed as paper PMC11173508.

test: Pharmacokinetic study in rats after intragastric and intravenous administration (UHPLC-MS/MS of plasma); format: in vivo, Sprague–Dawley rats; conditions: Sprague-Dawley, rat, plasma, oral dose 25 mg/kg vs i.v. 5 mg/kg, F = Doseiv × AUCig/(Doseig × AUCiv) × 100%, read-out: absolute bioavailability (F)
QUANTITY: bioavailability (%)
One number for each entry, in %.

Record summary for COc1c(Br)cc(C[C@H](NC(=O)Cc2ccc(OCCCNC(C)=O)cc2)C(=O)NCCc2cc(Br)c(O)c(Br)c2)cc1Br : reported bioavailability = 13.7

---

Assay: Pharmacokinetic study in rats after intragastric and intravenous administration (UHPLC-MS/MS of plasma)
Type: in vivo, Sprague–Dawley rats
Conditions: Sprague-Dawley, rat, po, i.g. mid dose 25 mg/kg, plasma, mean ± SD, n = 6
Procedure: Sprague–Dawley rats (250 ± 20 g) were supplied from the Experimental Animal Centre of China Medical University (Shenyang, China) and housed under unified conditions. […] The pharmacokinetic parameters were calculated by non-compartmental model using the DAS 3.2.8 software. […]
QUANTITY: AUC(0-t)
Don't forget the unit after the value.

Record summary for COc1c(Br)cc(C[C@H](NC(=O)Cc2ccc(OCCCNC(C)=O)cc2)C(=O)NCCc2cc(Br)c(O)c(Br)c2)cc1Br : reported AUC(0-t) = 1540 ng·h/mL

---

assay: Pharmacokinetic study in rats after intragastric and intravenous administration (UHPLC-MS/MS of plasma); format: in vivo, Sprague–Dawley rats; conditions: Sprague-Dawley, rat, iv, i.v. 5 mg/kg, plasma, mean ± SD, n = 6, read-out: ke (converted)
QUANTITY: k el (s⁻¹)
One number for each entry, in s⁻¹.

Record summary for COc1c(Br)cc(C[C@H](NC(=O)Cc2ccc(OCCCNC(C)=O)cc2)C(=O)NCCc2cc(Br)c(O)c(Br)c2)cc1Br : reported k el = 7.5e-05

---

experiment: Pharmacokinetic study in rats after intragastric and intravenous administration (UHPLC-MS/MS of plasma); format: in vivo, Sprague–Dawley rats; details: Sprague-Dawley, rat, po, i.g. mid dose 25 mg/kg, plasma, mean ± SD, n = 6
QUANTITY: AUC(0-inf) (ng·h/mL)
Numbers only, in ng·h/mL.

Record summary for COc1c(Br)cc(C[C@H](NC(=O)Cc2ccc(OCCCNC(C)=O)cc2)C(=O)NCCc2cc(Br)c(O)c(Br)c2)cc1Br [itampolin A, Itampolin A] : reported AUC(0-inf) = 1940

---

experiment: Pharmacokinetic study in rats after intragastric and intravenous administration (UHPLC-MS/MS of plasma); type: in vivo, Sprague–Dawley rats; conditions: Sprague-Dawley, rat, po, i.g. low dose 10 mg/kg, plasma, mean ± SD, n = 6
QUANTITY: AUC(0-t) (ng·h/mL)
One number for each entry, in ng·h/mL.

Record summary for COc1c(Br)cc(C[C@H](NC(=O)Cc2ccc(OCCCNC(C)=O)cc2)C(=O)NCCc2cc(Br)c(O)c(Br)c2)cc1Br [itampolin A, Itampolin A] : reported AUC(0-t) = 939

---

assay: Pharmacokinetic study in rats after intragastric and intravenous administration (UHPLC-MS/MS of plasma); assay type: in vivo, Sprague–Dawley rats; details: Sprague-Dawley, rat, plasma, iv, 5 mg/kg, i.v. 5 mg/kg, mean ± SD, n = 6
QUANTITY: Tmax
Don't forget the unit after the value.

Record summary for COc1c(Br)cc(C[C@H](NC(=O)Cc2ccc(OCCCNC(C)=O)cc2)C(=O)NCCc2cc(Br)c(O)c(Br)c2)cc1Br : reported Tmax = 1.8 min

---

Experiment: Pharmacokinetic study in rats after intragastric and intravenous administration (UHPLC-MS/MS of plasma)
Assay type: in vivo, Sprague–Dawley rats
Conditions: Sprague-Dawley, rat, po, i.g. low dose 10 mg/kg, plasma, mean ± SD, n = 6
Procedure: Sprague–Dawley rats (250 ± 20 g) were supplied from the Experimental Animal Centre of China Medical University (Shenyang, China) and housed under unified conditions. […] The pharmacokinetic parameters were calculated by non-compartmental model using the DAS 3.2.8 software. […]
QUANTITY: Cmax (ng/mL)
Give bare numbers, in ng/mL.

Record summary for COc1c(Br)cc(C[C@H](NC(=O)Cc2ccc(OCCCNC(C)=O)cc2)C(=O)NCCc2cc(Br)c(O)c(Br)c2)cc1Br : reported Cmax = 283

---

experiment: Pharmacokinetic study in rats after intragastric and intravenous administration (UHPLC-MS/MS of plasma); type: in vivo, Sprague–Dawley rats; conditions: Sprague-Dawley, rat, plasma, po, 50 mg/kg, intragastric 10, 25 and 50 mg/kg, summary over the three doses
QUANTITY: Tmax

Record summary for COc1c(Br)cc(C[C@H](NC(=O)Cc2ccc(OCCCNC(C)=O)cc2)C(=O)NCCc2cc(Br)c(O)c(Br)c2)cc1Br : reported Tmax = < 1.7 h

---

test: Pharmacokinetic study in rats after intragastric and intravenous administration (UHPLC-MS/MS of plasma); assay type: in vivo, Sprague–Dawley rats; conditions: Sprague-Dawley, rat, plasma, po, 25 mg/kg, i.g. mid dose 25 mg/kg, mean ± SD, n = 6
QUANTITY: half-life (h)
Give bare numbers, in h.

Record summary for COc1c(Br)cc(C[C@H](NC(=O)Cc2ccc(OCCCNC(C)=O)cc2)C(=O)NCCc2cc(Br)c(O)c(Br)c2)cc1Br [itampolin A, Itampolin A] : reported half-life = 2.3

---

experiment: Pharmacokinetic study in rats after intragastric and intravenous administration (UHPLC-MS/MS of plasma); assay type: in vivo, Sprague–Dawley rats; settings: Sprague-Dawley, rat, po, i.g. low dose 10 mg/kg, plasma, mean ± SD, n = 6, read-out: ke (converted)
QUANTITY: k el (s⁻¹)
Answers are plain numbers, in s⁻¹.

Record summary for COc1c(Br)cc(C[C@H](NC(=O)Cc2ccc(OCCCNC(C)=O)cc2)C(=O)NCCc2cc(Br)c(O)c(Br)c2)cc1Br [itampolin A, Itampolin A] : reported k el = 7.5e-05

---

assay: Pharmacokinetic study in rats after intragastric and intravenous administration (UHPLC-MS/MS of plasma); format: in vivo, Sprague–Dawley rats; details: Sprague-Dawley, rat, plasma, po, 50 mg/kg, i.g. high dose 50 mg/kg, mean ± SD, n = 6
QUANTITY: Tmax (min)
One number for each entry, in min.

Record summary for COc1c(Br)cc(C[C@H](NC(=O)Cc2ccc(OCCCNC(C)=O)cc2)C(=O)NCCc2cc(Br)c(O)c(Br)c2)cc1Br : reported Tmax = 54

---

test: Pharmacokinetic study in rats after intragastric and intravenous administration (UHPLC-MS/MS of plasma); type: in vivo, Sprague–Dawley rats; conditions: Sprague-Dawley, rat, po, i.g. high dose 50 mg/kg, plasma, mean ± SD, n = 6
QUANTITY: AUC(0-inf)
Don't forget the unit after the value.

Record summary for COc1c(Br)cc(C[C@H](NC(=O)Cc2ccc(OCCCNC(C)=O)cc2)C(=O)NCCc2cc(Br)c(O)c(Br)c2)cc1Br : reported AUC(0-inf) = 3190 ng·h/mL

---

experiment: Pharmacokinetic study in rats after intragastric and intravenous administration (UHPLC-MS/MS of plasma); format: in vivo, Sprague–Dawley rats; details: Sprague-Dawley, rat, po, i.g. high dose 50 mg/kg, plasma, mean ± SD, n = 6
QUANTITY: Cmax (ng/mL)
One number for each entry, in ng/mL.

Record summary for COc1c(Br)cc(C[C@H](NC(=O)Cc2ccc(OCCCNC(C)=O)cc2)C(=O)NCCc2cc(Br)c(O)c(Br)c2)cc1Br : reported Cmax = 807

---

assay: Pharmacokinetic study in rats after intragastric and intravenous administration (UHPLC-MS/MS of plasma); assay type: in vivo, Sprague–Dawley rats; conditions: Sprague-Dawley, rat, po, i.g. mid dose 25 mg/kg, plasma, mean ± SD, n = 6
QUANTITY: Cmax (ng/mL)
Numbers only, in ng/mL.

Record summary for COc1c(Br)cc(C[C@H](NC(=O)Cc2ccc(OCCCNC(C)=O)cc2)C(=O)NCCc2cc(Br)c(O)c(Br)c2)cc1Br : reported Cmax = 412
